biological target: human GHS-R1a (Homo sapiens (Human)); test: GHS-R1a binding assay, competition with 125I-ghrelin on membranes of LLC-PK1 cells expressing human GHS-R1a; conditions: Table 5; read-out: IC50 Binding GHS-R1a
Starred links: 1 amine or outer side, 2 acyl side, 3 side chain; linkers in the order of their positions; H or OH if unused. Non-standard residues stand in square brackets, D forms with d. Residues, ends and D or L forms follow the SMILES beside them. azaPhe = O=C(N(Cc1ccccc1)N[*:1])[*:2]; azaLeu = CC(C)CN(N[*:1])C(=O)[*:2]; azaPro = O=C(N1CCCN1[*:1])[*:2]
quantity kind: IC50

compound="C[C@H](NC(=O)[C@H](C)NC(=O)N(Cc1ccccc1)NC(=O)[C@@H](N)Cc1cnc[nH]1)C(=O)N[C@H](Cc1ccccc1)C(=O)N[C@@H](CCCCN)C(N)=O [CP-1A (iii), (D/L)His-azaPhe-Ala-Ala-D-Phe-Lys-NH2] (H-H[azaPhe]AA[dF]K-NH2)" value_measured="> 10 µM"
compound="C[C@H](NC(=O)[C@@H](Cc1ccccc1)NC(=O)[C@H](Cc1c[nH]c2ccccc12)NC(=O)[C@H](C)NC(=O)N(Cc1ccccc1)NC(=O)[C@@H](N)Cc1cnc[nH]1)C(N)=O [CP-1A (i), His-azaPhe-Ala-Trp-D-Phe-Ala-NH2] (H-H[azaPhe]AW[dF]A-NH2)" value_measured="51 µM"
compound="NCCCC[C@H](NC(=O)[C@@H](Cc1ccccc1)NC(=O)[C@H](Cc1c[nH]c2ccccc12)NC(=O)N1CCCN1C(=O)[C@@H](Cc1c[nH]c2ccccc12)NC(=O)[C@@H](N)Cc1cnc[nH]1)C(N)=O [CP-AP_4, His-D-Trp-azaPro-Trp-D-Phe-Lys-NH2] (H-H[dW][azaPro]W[dF]K-NH2)" value_measured="> 10 µM"
compound="CC(C)CN(NC(=O)[C@@H](Cc1c[nH]c2ccccc12)NC(=O)[C@@H](N)Cc1cnc[nH]1)C(=O)N[C@@H](C)C(=O)N[C@H](Cc1ccccc1)C(=O)N[C@@H](CCCCN)C(N)=O [CP-2B (iii), His-D-Trp-azaLeu-Ala-D-Phe-Lys-NH2] (H-H[dW][azaLeu]A[dF]K-NH2)" value_measured="> 10 µM"

###

Listing: pIC50 of selected compounds
molecular target: human GHS-R1a (Homo sapiens (Human), UniProt Q92847); test: GHS-R1a binding assay, competition with 125I-ghrelin on membranes of LLC-PK1 cells expressing human GHS-R1a; conditions: Table 4; LLCPK-1 membranes overexpressing GHS-R1a; radioiodinated (1-28) rat ghrelin as tracer; read-out: EC50 (text: IC50 values from competition curves in GHS-R1a radioreceptor assay)
Sequence (Q92847 whole entry): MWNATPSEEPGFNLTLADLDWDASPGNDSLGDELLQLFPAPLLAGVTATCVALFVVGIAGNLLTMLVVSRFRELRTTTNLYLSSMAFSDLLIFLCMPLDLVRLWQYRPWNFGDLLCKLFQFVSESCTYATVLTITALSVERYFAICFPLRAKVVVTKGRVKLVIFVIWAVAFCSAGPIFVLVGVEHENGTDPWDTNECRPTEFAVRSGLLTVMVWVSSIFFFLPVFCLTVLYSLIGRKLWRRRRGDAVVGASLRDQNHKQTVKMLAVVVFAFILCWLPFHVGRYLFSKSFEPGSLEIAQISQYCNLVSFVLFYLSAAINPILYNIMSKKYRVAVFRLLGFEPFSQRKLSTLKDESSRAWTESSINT
pIC50: −log10 of the molar value. Starred links: 1 amine or outer side, 2 acyl side, 3 side chain; linkers in the order of their positions; H or OH if unused. Non-standard residues stand in square brackets, D forms with d. Residues, ends and D or L forms follow the SMILES beside them. azaPhe = O=C(N(Cc1ccccc1)N[*:1])[*:2]; X2 = O=C(N(CCc1ccccc1)N[*:1])[*:2]; X1 = O=C(N(CC1CCCCC1)N[*:1])[*:2]
quantity kind: pIC50

compound="C[C@H](NC(=O)[C@@H](Cc1c[nH]c2ccccc12)NC(=O)[C@@H](N)Cc1cnc[nH]1)C(=O)N[C@H](Cc1ccc(O)cc1)C(=O)N[C@H](Cc1ccccc1)C(=O)N[C@@H](CCCCN)C(N)=O [DBG253-8, His-D-Trp-Ala-D-Tyr-D-Phe-Lys-NH2] (H-H[dW]A[dY][dF]K-NH2)" quantity_kind=pIC50 value_measured=5.49
compound="C[C@H](NC(=O)[C@@H](Cc1c[nH]c2ccccc12)NC(=O)[C@@H](N)Cc1cnc[nH]1)C(=O)NN(Cc1ccccc1)C(=O)N[C@H](Cc1ccccc1)C(=O)N[C@@H](CCCCN)C(N)=O [DBG253-1, His-D-Trp-Ala-azaPhe-D-Phe-Lys-NH2] (H-H[dW]A[azaPhe][dF]K-NH2)" quantity_kind=pIC50 value_measured=5.56
compound="C[C@H](NC(=O)[C@@H](Cc1c[nH]c2ccccc12)NC(=O)[C@@H](N)Cc1cnc[nH]1)C(=O)NN(CCc1ccccc1)C(=O)N[C@H](Cc1ccccc1)C(=O)N[C@@H](CCCCN)C(N)=O [DBG253-5, His-D-Trp-Ala-azahomoPhe-D-Phe-Lys-NH2] (H-H[dW]A[X2][dF]K-NH2)" quantity_kind=pIC50 value_measured=5.43
compound="C[C@H](NC(=O)N(CC1CCCCC1)NC(=O)[C@@H](N)Cc1cnc[nH]1)C(=O)N[C@@H](Cc1c[nH]c2ccccc12)C(=O)N[C@H](Cc1ccccc1)C(=O)N[C@@H](CCCCN)C(N)=O [DBG253-13, His-azaCha-Ala-Trp-D-Phe- Lys-NH2] (H-H[X1]AW[dF]K-NH2)" quantity_kind=pIC50 value_measured=5.26

###

Listing: IC50 of selected molecules
target: human GHS-R1a (Homo sapiens (Human), UniProt Q92847); assay: GHS-R1a binding assay, competition with 125I-ghrelin on membranes of LLC-PK1 cells expressing human GHS-R1a; details: Table 4; LLCPK-1 membranes overexpressing GHS-R1a; radioiodinated (1-28) rat ghrelin as tracer; read-out: EC50 (text: IC50 values from competition curves in GHS-R1a radioreceptor assay)
Starred links: 1 amine or outer side, 2 acyl side, 3 side chain; linkers in the order of their positions; H or OH if unused. Non-standard residues stand in square brackets, D forms with d. Residues, ends and D or L forms follow the SMILES beside them. *: point of attachment. X4 = O=C(N(Cc1ccc(-c2ccccc2)cc1)N[*:1])[*:2]; azaPhe = O=C(N(Cc1ccccc1)N[*:1])[*:2]; AzaAla = CN(N[*:1])C(=O)[*:2]; X5 = O=C(CC1CNc2ccccc21)*
quantity kind: IC50 (nM)

molecule="CN(NC(=O)[C@@H](Cc1c[nH]c2ccccc12)NC(=O)[C@@H](N)Cc1cnc[nH]1)C(=O)N[C@@H](Cc1c[nH]c2ccccc12)C(=O)N[C@H](Cc1ccccc1)C(=O)N[C@@H](CCCCN)C(N)=O [DBG145, His-D-Trp-azaAla-Trp-D-Phe-Lys-NH2] (H-H[dW][AzaAla]W[dF]K-NH2)" value_measured=809
molecule="CN(NC(=O)[C@@H](Cc1c[nH]c2ccccc12)NC(=O)CC1CNc2ccccc21)C(=O)N[C@@H](Cc1c[nH]c2ccccc12)C(=O)N[C@H](Cc1ccccc1)C(=O)N[C@@H](CCCCN)C(N)=O (stereo partly drawn) [DBG168-8, In—CO-D-Trp-azaAla-Trp-D-Phe-Lys-NH2] (X5-[dW][AzaAla]W[dF]K-NH2)" value_measured=514
molecule="C[C@H](NC(=O)[C@@H](Cc1c[nH]c2ccccc12)NC(=O)[C@@H](N)Cc1cnc[nH]1)C(=O)NN(Cc1ccc(-c2ccccc2)cc1)C(=O)N[C@H](Cc1ccccc1)C(=O)N[C@@H](CCCCN)C(N)=O [DBG253-3, His-D-Trp-Ala-azaBip-D-Phe-Lys-NH2] (H-H[dW]A[X4][dF]K-NH2)" value_measured=1340
molecule="C[C@H](NC(=O)N(Cc1ccccc1)NC(=O)[C@@H](N)Cc1cnc[nH]1)C(=O)N[C@@H](Cc1c[nH]c2ccccc12)C(=O)N[C@H](Cc1ccccc1)C(=O)N[C@@H](CCCCN)C(N)=O [DBG253-9, His-azaPhe-Ala-Trp-D-Phe-Lys-NH2] (H-H[azaPhe]AW[dF]K-NH2)" value_measured=16100

###

Listing: pIC50 of selected compounds
target: UniProt:Q07969; experiment: CD36 receptor covalent photolabelling binding assay, competition with [125I]Tyr-Bpa-Ala-hexarelin on rat cardiac membranes; conditions: Table 3; rat cardiac membranes; [125I]Tyr-Bpa-Ala-hexarelin as radioligand; read-out: IC50, binding affinity of aza peptide derivatives towards CD36
Sequence (Q07969 whole entry): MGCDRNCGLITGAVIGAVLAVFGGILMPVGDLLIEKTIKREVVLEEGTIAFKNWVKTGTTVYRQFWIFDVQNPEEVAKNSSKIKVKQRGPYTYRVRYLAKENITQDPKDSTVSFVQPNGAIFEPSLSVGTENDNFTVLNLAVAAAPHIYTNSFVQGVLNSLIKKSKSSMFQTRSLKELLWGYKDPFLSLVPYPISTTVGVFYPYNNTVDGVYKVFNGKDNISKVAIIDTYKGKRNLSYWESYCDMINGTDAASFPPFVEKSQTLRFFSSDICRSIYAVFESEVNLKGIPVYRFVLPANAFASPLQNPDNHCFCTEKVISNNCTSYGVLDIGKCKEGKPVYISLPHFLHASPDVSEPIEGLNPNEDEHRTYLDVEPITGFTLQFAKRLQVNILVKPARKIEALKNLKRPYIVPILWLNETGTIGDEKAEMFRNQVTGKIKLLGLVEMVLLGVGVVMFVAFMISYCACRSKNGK
pIC50: −log10 of the molar value. Starred links: 1 amine or outer side, 2 acyl side, 3 side chain; linkers in the order of their positions; H or OH if unused. Non-standard residues stand in square brackets, D forms with d. Residues, ends and D or L forms follow the SMILES beside them. X3 = O=C(N(Cc1cccc2ccccc12)N[*:1])[*:2]; azaPhe = O=C(N(Cc1ccccc1)N[*:1])[*:2]; azaLeu = CC(C)CN(N[*:1])C(=O)[*:2]; X1 = O=C(N(CC1CCCCC1)N[*:1])[*:2]; azaGly = NNC(=O)O
quantity kind: pIC50

compound="NCCCC[C@H](NC(=O)[C@@H](Cc1ccccc1)NC(=O)[C@H](Cc1c[nH]c2ccccc12)NC(=O)NNC(=O)[C@@H](Cc1c[nH]c2ccccc12)NC(=O)[C@@H](N)Cc1cnc[nH]1)C(N)=O [DBG188p, His-D-Trp-azaGly-Trp-D-Phe-Lys-NH2] (H-H[dW][azaGly]W[dF]K-NH2)" quantity_kind=pIC50 operator== value_measured=5.02
compound="C[C@H](NC(=O)N(CC1CCCCC1)NC(=O)[C@@H](N)Cc1cnc[nH]1)C(=O)N[C@@H](Cc1c[nH]c2ccccc12)C(=O)N[C@H](Cc1ccccc1)C(=O)N[C@@H](CCCCN)C(N)=O [DBG253-13, His-azaCha-Ala-Trp-D-Phe- Lys-NH2] (H-H[X1]AW[dF]K-NH2)" quantity_kind=pIC50 operator=< value_measured=5.00
compound="C[C@H](NC(=O)N(Cc1cccc2ccccc12)NC(=O)[C@@H](N)Cc1cnc[nH]1)C(=O)N[C@@H](Cc1c[nH]c2ccccc12)C(=O)N[C@H](Cc1ccccc1)C(=O)N[C@@H](CCCCN)C(N)=O [DBG253-10, His-azaNal-1-Ala-Trp-D-Phe-Lys-NH2] (H-H[X3]AW[dF]K-NH2)" quantity_kind=pIC50 operator== value_measured=2.71
compound="CC(C)CN(NC(=O)[C@@H](Cc1c[nH]c2ccccc12)NC(=O)[C@@H](N)Cc1cnc[nH]1)C(=O)N[C@@H](Cc1c[nH]c2ccccc12)C(=O)N[C@H](Cc1ccccc1)C(=O)N[C@@H](CCCCN)C(N)=O [DBG201-A, His-D-Trp-azaLeu-Trp-D-Phe-Lys-NH2] (H-H[dW][azaLeu]W[dF]K-NH2)" quantity_kind=pIC50 operator== value_measured=5.54
compound="C[C@H](NC(=O)[C@@H](Cc1c[nH]c2ccccc12)NC(=O)[C@@H](N)Cc1cnc[nH]1)C(=O)N[C@@H](Cc1ccc(O)cc1)C(=O)N[C@H](Cc1ccccc1)C(=O)N[C@@H](CCCCN)C(N)=O [DBG253-7, His-D-Trp-Ala-Tyr-D-Phe-Lys-NH2] (H-H[dW]AY[dF]K-NH2)" quantity_kind=pIC50 operator== value_measured=4.88
compound="C[C@H](NC(=O)[C@@H](Cc1c[nH]c2ccccc12)NC(=O)[C@@H](N)Cc1cnc[nH]1)C(=O)NN(CC1CCCCC1)C(=O)N[C@H](Cc1ccccc1)C(=O)N[C@@H](CCCCN)C(N)=O [DBG253-4, His-D-Trp-Ala-azaCha-D-Phe-Lys-NH2] (H-H[dW]A[X1][dF]K-NH2)" quantity_kind=pIC50 operator== value_measured=2.68
compound="C[C@H](NC(=O)N(Cc1ccccc1)NC(=O)[C@@H](N)Cc1cnc[nH]1)C(=O)N[C@@H](Cc1c[nH]c2ccccc12)C(=O)N[C@H](Cc1ccccc1)C(=O)N[C@@H](CCCCN)C(N)=O [DBG253-9, His-azaPhe-Ala-Trp-D-Phe-Lys-NH2] (H-H[azaPhe]AW[dF]K-NH2)" quantity_kind=pIC50 operator== value_measured=4.14
